Exercise: state measured mass density for each of the compounds provided.
# TEST_PARAMETERS: 328.15 K; 60000 kPa; Liquid; Vibrating tube method
One number for each entry, in kg/m3.

Known results for compounds:
Endpoint output: mass density of CCC(C)CC [3-methylpentane] . Value?
689.42

Could you share which mass density value was measured for CCCC(C)C [2-methylpentane] ?
679.93

Which measured mass density value corresponds to CC(C)C(C)C [2,3-dimethylbutane] ?
688.05

The record that follows has no mass density shown yet.
May I ask what mass density has been recorded for CCC(C)(C)C [2,2-dimethylbutane] ?
678.64

----------
# TEST_PARAMETERS: 323.15 K; 5000 kPa; Liquid; Vibrating tube method
For each of the compounds below, state its mass density.
Answers are plain numbers, in kg/m3.

Here's what some known entries look like.
Given the entry CCCC(C)C [2-methylpentane] , report its measured mass density.
631.78

What value of mass density has been recorded for this entry: CCC(C)CC [3-methylpentane]
642.73

Which measured mass density value corresponds to CC(C)C(C)C [2,3-dimethylbutane] ?
640.11

Now examine the next entry.
Quick one: mass density of CCC(C)(C)C [2,2-dimethylbutane] ?
627.74

----------
Would you kindly list mass density for each of these molecules?
# TEST_PARAMETERS: 308.15 K; 65000 kPa; Liquid; Vibrating tube method
Numbers only, in kg/m3.

Answered cases to consult:
Tell me the measured mass density of CCC(C)CC , please.
705.28

Reported mass density for CCCC(C)C : what is it?
695.97

# mass density lookup, item CCC(C)(C)C
695.23

// next item, mass density requested
Item under review: CC(C)C(C)C . Reported mass density?
704.06

----------
# TEST_PARAMETERS: 303.15 K; 40000 kPa; Liquid; Vibrating tube method
Exercise: state measured mass density for each of the compounds provided.
Numbers only, in kg/m3.

Please report the recorded mass density for CCC(C)CC .
691.63

// lookup mass density for CCCC(C)C
682.03

Could you share which mass density value was measured for CC(C)C(C)C ?
690.01

Attention now turns to another entry.
So what does the record say about mass density for CCC(C)(C)C ?
680.03

----------
# TEST_PARAMETERS: 313.15 K; 100 kPa; Liquid; Vibrating tube method
What mass density was measured for each of the following?
Answers are plain numbers, in kg/m3.

Quick one: mass density of CCC(C)(C)C ?
630.04

Given CC(C)C(C)C , state its recorded mass density.
642.78

Please report the recorded mass density for CCC(C)CC .
645.7

From here, focus on the item given below.
Could you tell me which mass density is on file for CCCC(C)C ?
634.49

----------
# TEST_PARAMETERS: 288.15 K; 100 kPa; Liquid; Vibrating tube method
PARAMETER_MEASURED: mass density (kg/m3)
One number for each entry, in kg/m3.

For the molecule CCC(C)(C)C [2,2-dimethylbutane] , what mass density is on record?
653.96

Name the recorded mass density for CCC(C)CC [3-methylpentane] .
668.91

Entry CCCC(C)C [2-methylpentane] has what mass density?
657.8

Further cases:
Which mass density value is on record for CC(C)C(C)C [2,3-dimethylbutane] ?
666.22

----------
# TEST_PARAMETERS: 308.15 K; 5000 kPa; Liquid; Vibrating tube method
I'd appreciate it if you could supply mass density values for the items below.
Give bare numbers, in kg/m3.

In the examples that follow, each entry is paired with its recorded mass density.
For the compound shown here, CCC(C)CC , give the reported mass density.
656.28

# mass density lookup, item CC(C)C(C)C
653.82

Requested read-out: mass density. Entry: CCC(C)(C)C
641.54

Let us examine a further case.
Request the reported mass density associated with CCCC(C)C
645.36
